Assay: Permeability from apical to basolateral side of human Caco2 cells
Type: ADME, cell-based
Conditions: Caco-2, read-out: permeability
property.measured: Papp A→B (×10⁻⁶ cm/s)

INSERT INTO assay_data (molecule, property_measured, test_value) VALUES
  ('CC(CN(C)C)S(=O)(=O)c1ccc(-c2cnc(N)c(C(=O)Nc3ccccc3)n2)cc1 (stereo unspecified)', 'Papp A→B', 17);

###

Target: Cytochrome P450 3A4 (Homo sapiens, UniProt P08684)
Sequence (P08684 whole entry): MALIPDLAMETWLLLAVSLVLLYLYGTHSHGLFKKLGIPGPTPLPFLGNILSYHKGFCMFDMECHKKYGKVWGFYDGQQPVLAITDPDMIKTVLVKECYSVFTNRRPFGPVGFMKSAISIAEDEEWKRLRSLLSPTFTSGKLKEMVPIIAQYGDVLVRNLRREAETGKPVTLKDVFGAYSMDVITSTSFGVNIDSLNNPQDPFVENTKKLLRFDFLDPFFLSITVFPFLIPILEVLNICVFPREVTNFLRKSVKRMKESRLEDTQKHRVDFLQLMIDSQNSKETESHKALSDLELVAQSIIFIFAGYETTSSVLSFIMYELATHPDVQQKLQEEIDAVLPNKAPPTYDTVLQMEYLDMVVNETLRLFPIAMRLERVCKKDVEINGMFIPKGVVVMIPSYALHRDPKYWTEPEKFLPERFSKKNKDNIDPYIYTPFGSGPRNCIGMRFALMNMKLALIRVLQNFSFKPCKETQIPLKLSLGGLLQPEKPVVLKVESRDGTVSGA
pIC50: −log10 of the molar value.
property.measured: pIC50

INSERT INTO measurements (chemical_string, property_measured, test_value) VALUES
  ('Nc1ncc(-c2ccccc2)nc1C(=O)Nc1ccccc1', 'pIC50', '< 4.00');
